Cited source: the PETadex activity labels (doi:10.1016/j.bbalip.2005.11.003)

# Substrate: vinyl butyrate
# CONDITION DESCRIPTION: pH 7; 25 °C
METRIC: Km (µM)
One number for each entry, in µM.

// query For unnamed (protein) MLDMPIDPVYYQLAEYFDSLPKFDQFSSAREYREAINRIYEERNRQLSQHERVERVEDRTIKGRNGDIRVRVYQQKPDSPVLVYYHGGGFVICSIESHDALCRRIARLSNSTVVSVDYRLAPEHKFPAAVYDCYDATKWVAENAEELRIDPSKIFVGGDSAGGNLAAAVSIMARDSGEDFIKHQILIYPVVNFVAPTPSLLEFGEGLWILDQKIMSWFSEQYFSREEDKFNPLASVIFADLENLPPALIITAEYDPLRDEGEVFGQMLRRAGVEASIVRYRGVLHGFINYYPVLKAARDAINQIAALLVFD , what is its reported Km?
// result 2500
